biological target: hCES1A (Homo sapiens, UniProt P23141); construct: tissue Bioreclamation IVT lot no; X008067; host or cells: pooled human liver microsomes (50 donors); experiment: hCES1A inhibition assay (DME hydrolysis in HLM); assay type: biochemical; conditions: HLM, ginsenoside 100 μM, result in words;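 note: Read-out is D-luciferin luminescence formed from DME (3 µM) after 10 min at 37 °C in pH 6.5 PBS, HLM 1 µg/mL, inhibitor preincubated 3 min, oleanic acid as positive control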
Sequence (P23141 18-567): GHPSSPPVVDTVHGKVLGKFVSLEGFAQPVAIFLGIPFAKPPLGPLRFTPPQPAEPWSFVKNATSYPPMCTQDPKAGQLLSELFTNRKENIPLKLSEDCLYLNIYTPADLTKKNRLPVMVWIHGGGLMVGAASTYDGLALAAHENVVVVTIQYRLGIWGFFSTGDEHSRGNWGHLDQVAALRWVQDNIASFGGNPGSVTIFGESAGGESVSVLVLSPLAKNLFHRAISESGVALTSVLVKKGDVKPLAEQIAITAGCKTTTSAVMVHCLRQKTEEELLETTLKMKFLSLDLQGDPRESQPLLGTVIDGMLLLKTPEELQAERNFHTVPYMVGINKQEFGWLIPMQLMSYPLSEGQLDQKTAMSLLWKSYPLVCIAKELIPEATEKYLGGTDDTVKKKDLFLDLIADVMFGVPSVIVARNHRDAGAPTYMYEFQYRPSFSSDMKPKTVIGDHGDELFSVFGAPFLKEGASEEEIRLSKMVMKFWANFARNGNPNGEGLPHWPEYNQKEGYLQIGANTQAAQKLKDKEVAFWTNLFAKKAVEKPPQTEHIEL
measuredMetric: inhibition of hCES1A-mediated DME hydrolysis (residual activity screen)

compound	result
CC(C)=CCC[C@](C)(O[C@@H]1O[C@H](CO[C@@H]2OC[C@@H](O)[C@H](O)[C@H]2O)[C@@H](O)[C@H](O)[C@H]1O)[C@H]1CC[C@]2(C)[C@@H]1[C@H](O)C[C@@H]1[C@@]3(C)CC[C@H](O[C@@H]4O[C@H](CO)[C@@H](O)[C@H](O)[C@H]4O[C@@H]4O[C@H](CO)[C@@H](O)[C@H](O)[C@H]4O)C(C)(C)[C@@H]3CC[C@]12C	hardly inhibit
CC(C)=CCC[C@](C)(O[C@@H]1O[C@H](CO[C@@H]2O[C@H](CO)[C@@H](O)[C@H](O)[C@H]2O)[C@@H](O)[C@H](O)[C@H]1O)[C@H]1CC[C@]2(C)[C@@H]1[C@H](O)C[C@@H]1[C@@]3(C)CC[C@H](O[C@@H]4O[C@H](CO)[C@@H](O)[C@H](O)[C@H]4O[C@@H]4O[C@H](CO)[C@@H](O)[C@H](O)[C@H]4O)C(C)(C)[C@@H]3CC[C@]12C	hardly inhibit
CC(C)=CCC[C@](C)(O[C@@H]1O[C@H](CO)[C@@H](O)[C@H](O)[C@H]1O)[C@H]1CC[C@]2(C)[C@@H]1[C@H](O)C[C@@H]1[C@@]3(C)CC[C@H](O)C(C)(C)[C@@H]3[C@@H](O[C@@H]3O[C@H](CO)[C@@H](O)[C@H](O)[C@H]3O[C@@H]3O[C@@H](C)[C@H](O)[C@@H](O)[C@H]3O)C[C@]12C [Re, ginsenoside Re]	hardly inhibit
